Test system: Rattus norvegicus
test.details: Efficiency is defined as net iron excretion in rats at the dose of 150 umol/kg administered subcutaneously.
Format: functional
# if value of Efficiency reaches 2%, tag Y; if it stays below, tag N

Solved entries:
Problem: Has O=C(C1CSC(c2ncccc2O)=N1)N(O)Cc1ccccc1 (stereo unspecified) a recorded Efficiency greater than or equal to 2%?
Result: N

Problem: Has O=C([C@H]1CSC(c2ncccc2O)=N1)N(O)CCOCCOCCN(O)C(=O)[C@H]1CSC(c2ncccc2O)=N1 a recorded Efficiency greater than or equal to 2%?
Result: Y

Problem: Has O=C(c1ccccc1O)N(O)CCOCCOCCN(O)C(=O)c1ccccc1O a recorded Efficiency greater than or equal to 2%?
Result: N

Problem: Has CC(=O)N(O)CCCCCN(O)C(=O)[C@H]1CSC(c2ncccc2O)=N1 a recorded Efficiency greater than or equal to 2%?
Result: Y

---
Problem: Has O=C(O)[C@H]1CSC(c2ncccc2O)=N1 a recorded Efficiency greater than or equal to 2%?
Result: N

Problem: Has CN(O)C(=O)[C@H]1CSC(c2ncccc2O)=N1 a recorded Efficiency greater than or equal to 2%?
Result: Y
